The measurements presented in this section are drawn from patent US7786141B2.

Below is a list of entries, each paired with its recorded Emax value.
- TARGET ENTITY: M1 muscarinic receptor (Homo sapiens, UniProt P11229)
- Construct: expressed in transfected cells; host or cells: CHO (M1-CHO)
- Sequence (P11229 1-460): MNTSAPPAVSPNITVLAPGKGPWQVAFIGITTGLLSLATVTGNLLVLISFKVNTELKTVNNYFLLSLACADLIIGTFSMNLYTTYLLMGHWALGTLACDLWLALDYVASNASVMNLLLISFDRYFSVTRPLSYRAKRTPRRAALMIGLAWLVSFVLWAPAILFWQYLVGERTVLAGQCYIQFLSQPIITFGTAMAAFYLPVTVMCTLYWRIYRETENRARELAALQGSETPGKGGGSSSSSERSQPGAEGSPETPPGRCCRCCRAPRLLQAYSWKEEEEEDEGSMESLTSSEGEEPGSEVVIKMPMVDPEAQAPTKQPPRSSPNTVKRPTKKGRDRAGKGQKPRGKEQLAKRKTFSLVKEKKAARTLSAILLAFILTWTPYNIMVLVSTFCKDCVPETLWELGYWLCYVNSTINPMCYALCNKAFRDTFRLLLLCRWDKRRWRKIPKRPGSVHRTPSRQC
- ASSAY EXPLANATION: Functional mobilization of intracellular calcium (FLIPR) in M1-CHO cells
- Format: cell-based
- ASSAY SETUP: Table 4; 100% efficacy is the maximum response obtained with the Carbachol control

Consider the worked cases shown below.
# MOLECULE, RECORDED RESULT
records = [
    ("CC1(C)C(=O)c2ccccc2C12CCN([C@H]1C[C@@H]3CC[C@@H]1C3)CC2", "< 25%"),
    ("O=C(N[C@H]1CC2(CCN(C3CCCCC3)CC2)c2ccccc21)c1ccoc1", "< 25%"),
    ("O=C1CCCCC1N1CC2(CCN(C3CC4CCC(C4)C3)CC2)c2cc(F)ccc21 (centres unmarked)", "25 to 100%"),
    ("COC(=O)N1CCC(N2CCC3(CC2)CN(C(C)=O)c2ccccc23)CC1", "25 to 100%"),
]

// switching to the query molecule
Prompt: For M1 muscarinic receptor (Homo sapiens, UniProt P11229), provide Emax of CCOC(=O)N1CCC(N2CCC3(CC2)CN(C2CCC(=O)CC2)c2ccc(F)cc23)CC1 please.
Response: 25 to 100%

---

- TARGET ENTITY: M1 muscarinic receptor (Homo sapiens, UniProt P11229)
- Construct: expressed in transfected cells; host or cells: CHO (M1-CHO)
- ASSAY EXPLANATION: Functional mobilization of intracellular calcium (FLIPR) in M1-CHO cells
- Format: cell-based
- ASSAY SETUP: Table 4; 100% efficacy is the maximum response obtained with the Carbachol control
MEASURED METRIC: Emax

# COMPOUND, MEASURED METRIC, RECORDED RESULT
data = [
    ("CCOC(=O)N1CCC(N2CCC3(CC2)CN(C(C)=O)c2c(-c4ccccc4F)cccc23)CC1 [compound 661]", "Emax", "25 to 100%"),
    ("CC(=O)N1CC2(CCN(CC3=CCC4C[C@@H]3C4(C)C)CC2)c2cc(F)ccc21 [compound 845]", "Emax", "< 25%"),
]

Okay, next one:
Prompt: // query Emax value for entry CN(C)C(=O)N1CC2(CCN(C3CCN(C(=O)c4cnccn4)CC3)CC2)c2cc(F)ccc21 [compound 531]
Response: < 25%
